# method_description: Stability of peptide mixtures under long term and accelerated storage (UPLC)
# Format: physicochemical
# stated_conditions: peptide in mixture of 6 peptides; Storage at 5 ± 3° C., T1M
Ends that are not written are not given here.
Field: Assay (net peptide content) (mg/vial). Provide a value for each of the sequences that follow.
Answers are plain numbers, in mg/vial.

// solved cases for Assay (net peptide content) (mg/vial) follow
YPALMPLYACIQAKQAFTFSPTYKAFLSKQYMNLYPVAR (cysteinylated cysteine) [SEQ ID 6, HBV Pol fragment SLP with cysteinylated cysteine]
0.20
LSAMSTTDLEAYFKDCLFKDWEELG [SEQ ID 2]
0.24
AARLCCQLDPARDVLCLRPVGAESR [Cystine(C(C)) containing SEQ ID NO: 4]
0.20
HLSLRGLPVCAFSSAGPCALRFTSA [Cystine(C(C)) containing SEQ ID NO: 1]
0.23
VLSRKYTSFPWLLGCTANWILRGTSFVYVPSALNPA [Cystine(C(C)) containing SEQ ID NO: 3] (VLSRKYTSFPWLLGC(Cys)TANWILRGTSFVYVPSALNPA) [HBV Pol fragment SLP with cysteinylated cysteine]
0.23

Read the next record carefully.
INPUT: Can you look up the measured Assay (net peptide content) (mg/vial) of VVNHYFQTRHYLHTLWKAGILYKRETTRSASFCGSPYSW (VVNHYFQTRHYLHTLWKAGILYKRETTRSASFC(Cys)GSPYSW) [SEQ ID 5, HBV Pol fragment SLP with cysteinylated cysteine] for me?
OUTPUT: 0.20
